Reference source: patent US20140271635A1

- MEASURED_ON: T1, full length human CD19 expressed on mouse preB cell line 300.19 (300.19-hsCD19FL) (human, UniProt P15391 20-556)
- T1 construct: whole, on cells; also called hCD19; 300.CD19
- T1 sequence (looked up): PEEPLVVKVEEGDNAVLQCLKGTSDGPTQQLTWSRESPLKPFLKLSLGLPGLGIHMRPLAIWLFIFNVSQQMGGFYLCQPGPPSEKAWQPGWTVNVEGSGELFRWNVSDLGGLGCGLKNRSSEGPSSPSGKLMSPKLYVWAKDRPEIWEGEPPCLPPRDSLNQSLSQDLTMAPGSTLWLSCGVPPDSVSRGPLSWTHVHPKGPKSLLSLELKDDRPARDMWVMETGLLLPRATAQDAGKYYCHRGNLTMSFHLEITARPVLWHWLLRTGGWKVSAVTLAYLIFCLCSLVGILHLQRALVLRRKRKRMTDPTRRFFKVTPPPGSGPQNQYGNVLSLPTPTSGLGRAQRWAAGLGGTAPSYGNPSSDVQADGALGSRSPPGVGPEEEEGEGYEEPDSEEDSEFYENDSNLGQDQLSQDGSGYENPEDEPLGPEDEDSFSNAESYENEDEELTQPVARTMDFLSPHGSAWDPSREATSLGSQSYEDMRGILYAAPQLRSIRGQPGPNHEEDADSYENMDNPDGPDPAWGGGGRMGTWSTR
- TEST_DESCRIPTION: flow cytometry on mouse 300.19 cells expressing hCD19, His-tagged scFv
MEASURED_PROPERTY: binding result

103104 CAR 3 - Soluble scFv (scFv, Built here without the leader) scFv: QVQLQESGPGLVKPSETLSLTCTVSGVSLPDYGVSWIRQPPGKGLEWIGVIWGSETTYYSSSLKSRVTISKDNSKNQVSLKLSSVTAADTAVYYCAKHYYYGGSYAMDYWGQGTLVTVSSGGGGSGGGGSGGGGSEIVMTQSPATLSLSPGERATLSCRASQDISKYLNWYQQKPGQAPRLLIYHTSRLHSGIPARFSGSGSGTDYTLTISSLQPEDFAVYFCQQGNTLPYTFGQGTKLEIKHHHHHHHH    binds
99789 CAR5 - Soluble scFv (scFv, Built here without the leader) scFv: EIVMTQSPATLSLSPGERATLSCRASQDISKYLNWYQQKPGQAPRLLIYHTSRLHSGIPARFSGSGSGTDYTLTISSLQPEDFAVYFCQQGNTLPYTFGQGTKLEIKGGGGSGGGGSGGGGSGGGGSQVQLQESGPGLVKPSETLSLTCTVSGVSLPDYGVSWIRQPPGKGLEWIGVIWGSETTYYSSSLKSRVTISKDNSKNQVSLKLSSVTAADTAVYYCAKHYYYGGSYAMDYWGQGTLVTVSSHHHHHHHH    binds
103102 CAR2 - Soluble scFv (scFv, Built here without the leader) scFv: EIVMTQSPATLSLSPGERATLSCRASQDISKYLNWYQQKPGQAPRLLIYHTSRLHSGIPARFSGSGSGTDYTLTISSLQPEDFAVYFCQQGNTLPYTFGQGTKLEIKGGGGSGGGGSGGGGSQVQLQESGPGLVKPSETLSLTCTVSGVSLPDYGVSWIRQPPGKGLEWIGVIWGSETTYYQSSLKSRVTISKDNSKNQVSLKLSSVTAADTAVYYCAKHYYYGGSYAMDYWGQGTLVTVSSHHHHHHHH    binds
